Ref: paper PMC2949542

Hi there, I'd appreciate the recorded pKd for every entry that follows.
Target: UniProtKB P00921
Sequence (P00921 whole entry): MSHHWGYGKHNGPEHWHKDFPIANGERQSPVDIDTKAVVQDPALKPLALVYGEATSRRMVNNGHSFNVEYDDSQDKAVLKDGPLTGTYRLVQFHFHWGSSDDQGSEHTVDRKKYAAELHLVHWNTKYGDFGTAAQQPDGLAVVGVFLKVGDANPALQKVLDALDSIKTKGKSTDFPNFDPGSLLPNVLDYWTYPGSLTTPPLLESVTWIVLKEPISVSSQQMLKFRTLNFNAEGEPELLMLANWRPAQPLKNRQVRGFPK
Test: SPR
The value called pKd is obtained by taking minus log10 of the concentration in mol/L.

q: Which measured pKd value corresponds to NCc1ccc(S(N)(=O)=O)cc1 [4-(Aminomethyl)benzenesulfonamide] ?
a: 5.28

q: Fill in the blank: the reported pKd of NS(=O)(=O)c1ccccc1 [Benzenesulfonamide] is ____.
a: 6.01

q: Give the measured pKd of NS(=O)(=O)c1cccc(S(N)(=O)=O)c1 [1,3-Benzenedisulfonamide] .
a: 6.21
